# Tested on: BDF1 mice, P388 leukemia ip, median survival T/C
# Assay info: NCI In Vivo Anticancer Drug Screen. Data for tumor model P388 Leukemia (intraperitoneal) in B6D2F1 (BDF1) mice
# Study conditions: endpoint: median survival time; dose: 200.0 mg/kg/injection; schedule: Q04DX003 (ip); vehicle: saline with Tween-80
Inconclusive results and toxic doses are left out. The calls were made as follows: active = survival T/C of 150% or more; inactive = T/C below 125% in these data.
Labels: YES = active, NO = inactive

[
  {
    "Compound": "CCOC(=O)c1ccc(N(CCOS(C)(=O)=O)CCOS(C)(=O)=O)cc1",
    "Target entity": "BDF1 mice, P388 leukemia ip, median survival T/C",
    "Assigned class": "YES"
  },
  {
    "Compound": "COC1C(CO)OC(n2cnc3c(=S)nc(N)[nH]c32)C1O (stereo unspecified)",
    "Target entity": "BDF1 mice, P388 leukemia ip, median survival T/C",
    "Assigned class": "NO"
  },
  {
    "Compound": "CC1(c2cccs2)NC(=O)N(Cl)C1=O (stereo unspecified)",
    "Target entity": "BDF1 mice, P388 leukemia ip, median survival T/C",
    "Assigned class": "NO"
  },
  {
    "Compound": "COc1ccccc1/C=N/NC(=O)c1ccccc1",
    "Target entity": "BDF1 mice, P388 leukemia ip, median survival T/C",
    "Assigned class": "NO"
  },
  {
    "Compound": "Nc1ccc(-c2ccc(N)cc2Br)c(Br)c1",
    "Target entity": "BDF1 mice, P388 leukemia ip, median survival T/C",
    "Assigned class": "NO"
  },
  {
    "Compound": "C/C(=C/c1cc2c(cc1Br)OCO2)[N+](=O)[O-]",
    "Target entity": "BDF1 mice, P388 leukemia ip, median survival T/C",
    "Assigned class": "NO"
  },
  {
    "Compound": "COC(=O)CNC(=O)C(Cc1ccc(OCc2ccccc2)cc1)NC(=O)OC(C)(C)C (stereo unspecified)",
    "Target entity": "BDF1 mice, P388 leukemia ip, median survival T/C",
    "Assigned class": "NO"
  },
  {
    "Compound": "O=S(=O)(Nc1ccc(O)cc1)c1ccccc1",
    "Target entity": "BDF1 mice, P388 leukemia ip, median survival T/C",
    "Assigned class": "NO"
  },
  {
    "Compound": "CCSCCCCSCC",
    "Target entity": "BDF1 mice, P388 leukemia ip, median survival T/C",
    "Assigned class": "NO"
  },
  {
    "Compound": "Cc1nc2c(NC(=O)C(F)(F)F)nn(C)c2nc1C",
    "Target entity": "BDF1 mice, P388 leukemia ip, median survival T/C",
    "Assigned class": "NO"
  },
  {
    "Compound": "S=c1[nH]cc2cnccn12",
    "Target entity": "BDF1 mice, P388 leukemia ip, median survival T/C",
    "Assigned class": "NO"
  },
  {
    "Compound": "COC1OC(COC(=O)c2ccccc2)C(OC(=O)c2ccccc2)C(OC(=O)c2ccccc2)C1OC(=O)c1ccccc1 (stereo unspecified)",
    "Target entity": "BDF1 mice, P388 leukemia ip, median survival T/C",
    "Assigned class": "NO"
  },
  {
    "Compound": "C/C=C(/Cl)c1c(C)cc(C)cc1C",
    "Target entity": "BDF1 mice, P388 leukemia ip, median survival T/C",
    "Assigned class": "NO"
  },
  {
    "Compound": "COc1ccccc1NC(N)=O",
    "Target entity": "BDF1 mice, P388 leukemia ip, median survival T/C",
    "Assigned class": "NO"
  },
  {
    "Compound": "BrCC(Br)CBr",
    "Target entity": "BDF1 mice, P388 leukemia ip, median survival T/C",
    "Assigned class": "NO"
  },
  {
    "Compound": "CCCNC(C)(C)C(SS)c1ccc(Cl)cc1 (stereo unspecified)",
    "Target entity": "BDF1 mice, P388 leukemia ip, median survival T/C",
    "Assigned class": "NO"
  },
  {
    "Compound": "CC1(C)CCC2(CC1)CC(=O)OC2=O",
    "Target entity": "BDF1 mice, P388 leukemia ip, median survival T/C",
    "Assigned class": "NO"
  },
  {
    "Compound": "CC(C)(C)c1ccc(Sc2cccc3c2C(=O)c2c(Cl)cccc2C3=O)cc1",
    "Target entity": "BDF1 mice, P388 leukemia ip, median survival T/C",
    "Assigned class": "NO"
  },
  {
    "Compound": "CCCC(F)C(=O)OCC (stereo unspecified)",
    "Target entity": "BDF1 mice, P388 leukemia ip, median survival T/C",
    "Assigned class": "NO"
  },
  {
    "Compound": "CCCCC(=O)NN",
    "Target entity": "BDF1 mice, P388 leukemia ip, median survival T/C",
    "Assigned class": "NO"
  },
  {
    "Compound": "CCCCC(O)C1=CC(=O)C2CC(C)=C(C)CC2C1=O (stereo unspecified)",
    "Target entity": "BDF1 mice, P388 leukemia ip, median survival T/C",
    "Assigned class": "NO"
  },
  {
    "Compound": "Cc1nnc2n1N=C(c1ccc(-c3ccccc3)cc1)CS2",
    "Target entity": "BDF1 mice, P388 leukemia ip, median survival T/C",
    "Assigned class": "NO"
  },
  {
    "Compound": "COc1ccc(CC(=O)Cc2ccc(OC)c(OC)c2)cc1OC",
    "Target entity": "BDF1 mice, P388 leukemia ip, median survival T/C",
    "Assigned class": "NO"
  },
  {
    "Compound": "Cc1[nH]nc(C(N)=O)c1N=NN(C)C",
    "Target entity": "BDF1 mice, P388 leukemia ip, median survival T/C",
    "Assigned class": "YES"
  },
  {
    "Compound": "CC(=O)[C@@]12OC(C)(C)O[C@@H]1C[C@H]1[C@@H]3C[C@H](C)C4=CC(=O)CC[C@]4(C)[C@H]3CC[C@@]12C",
    "Target entity": "BDF1 mice, P388 leukemia ip, median survival T/C",
    "Assigned class": "NO"
  },
  {
    "Compound": "O=S(=O)(Cc1ccccc1)C(Cl)(Cl)c1ccccc1",
    "Target entity": "BDF1 mice, P388 leukemia ip, median survival T/C",
    "Assigned class": "NO"
  }
]
